Measured values drawn from ChEMBL document CHEMBL1132200 for this set.

Give Ki for every item shown.
STUDY TARGET: Adrenergic receptor alpha-1 (Rattus norvegicus, UniProt P15823+P23944+P43140)
Sequence (P15823 whole entry): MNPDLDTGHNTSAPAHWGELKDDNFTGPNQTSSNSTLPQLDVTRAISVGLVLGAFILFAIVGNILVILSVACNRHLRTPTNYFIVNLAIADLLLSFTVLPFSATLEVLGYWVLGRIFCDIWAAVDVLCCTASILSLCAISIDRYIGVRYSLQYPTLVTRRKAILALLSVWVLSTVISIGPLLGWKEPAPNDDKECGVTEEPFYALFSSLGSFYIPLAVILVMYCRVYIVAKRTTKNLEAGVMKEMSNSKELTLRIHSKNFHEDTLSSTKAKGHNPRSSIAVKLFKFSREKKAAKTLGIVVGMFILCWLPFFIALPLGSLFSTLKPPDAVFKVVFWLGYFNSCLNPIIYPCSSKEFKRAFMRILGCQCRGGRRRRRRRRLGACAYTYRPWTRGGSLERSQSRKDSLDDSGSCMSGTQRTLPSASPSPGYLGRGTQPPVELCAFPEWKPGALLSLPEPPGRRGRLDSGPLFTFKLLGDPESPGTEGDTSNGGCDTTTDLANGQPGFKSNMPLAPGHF
Sequence (P23944 whole entry): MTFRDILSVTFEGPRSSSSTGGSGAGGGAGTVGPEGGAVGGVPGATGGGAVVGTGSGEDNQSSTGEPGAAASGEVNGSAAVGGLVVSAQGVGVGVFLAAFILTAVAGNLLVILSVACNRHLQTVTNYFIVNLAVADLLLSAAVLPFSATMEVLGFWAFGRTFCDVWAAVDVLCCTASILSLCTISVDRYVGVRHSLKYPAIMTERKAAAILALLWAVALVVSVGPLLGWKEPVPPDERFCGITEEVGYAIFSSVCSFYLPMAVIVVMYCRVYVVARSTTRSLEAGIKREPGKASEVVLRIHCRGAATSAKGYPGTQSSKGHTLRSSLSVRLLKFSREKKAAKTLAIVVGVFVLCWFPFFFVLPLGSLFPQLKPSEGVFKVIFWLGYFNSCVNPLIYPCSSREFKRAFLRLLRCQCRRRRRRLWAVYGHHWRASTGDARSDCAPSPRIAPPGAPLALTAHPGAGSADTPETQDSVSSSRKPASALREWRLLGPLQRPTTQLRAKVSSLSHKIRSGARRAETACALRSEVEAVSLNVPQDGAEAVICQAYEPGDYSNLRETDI
Sequence (P43140 whole entry): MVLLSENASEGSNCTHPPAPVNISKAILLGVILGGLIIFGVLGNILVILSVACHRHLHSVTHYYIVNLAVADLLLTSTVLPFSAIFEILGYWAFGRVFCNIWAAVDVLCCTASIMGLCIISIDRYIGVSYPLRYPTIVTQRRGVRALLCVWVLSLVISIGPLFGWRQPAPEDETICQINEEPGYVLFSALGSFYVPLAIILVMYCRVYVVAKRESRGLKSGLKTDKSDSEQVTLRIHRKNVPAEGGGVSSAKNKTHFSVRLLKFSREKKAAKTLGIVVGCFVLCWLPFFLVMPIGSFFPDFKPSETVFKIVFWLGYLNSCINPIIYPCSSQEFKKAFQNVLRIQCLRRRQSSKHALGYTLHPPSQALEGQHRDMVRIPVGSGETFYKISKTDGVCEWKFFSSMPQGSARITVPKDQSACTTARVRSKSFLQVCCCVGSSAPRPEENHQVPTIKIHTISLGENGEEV
PROCEDURE SUMMARY: The compound was tested for binding affinity on [3H]- prazosin as specific ligand on alpha-1 adrenergic receptor cells in rat cerebral cortex
Format: tissue-based
Numbers only, in nM.

In the examples that follow, each entry is paired with its recorded Ki.
# CHEMICAL STRING, DISPLAY UNIT, Ki
records = [
    ("Cn1nc(Cl)c2cn3nc(NCCN4CCN(c5ccccc5)CC4)ccc3c2c1=O", "nM", 129.2),
    ("COc1ccccc1N1CCN(CCn2nc(-c3ccccc3)c(C(C)=O)c(N)c2=O)CC1", "nM", 24.6),
    ("COc1ccccc1N1CCN(CCNc2ccc3c4c(=O)n(C)nc(Cl)c4cn3n2)CC1", "nM", 73.3),
]

If you can, please state the reported Ki value of `Cn1nc(Cl)c2cn3nc(NCCN4CCN(c5ccccc5Cl)CC4)ccc3c2c1=O` .
54.6
